meta.source: patent US20110077237A1

Kindly state Ki for each of the entries shown.
- tested.system: PKC delta kinase (Homo sapiens)
- Sequence (Q05655 whole entry): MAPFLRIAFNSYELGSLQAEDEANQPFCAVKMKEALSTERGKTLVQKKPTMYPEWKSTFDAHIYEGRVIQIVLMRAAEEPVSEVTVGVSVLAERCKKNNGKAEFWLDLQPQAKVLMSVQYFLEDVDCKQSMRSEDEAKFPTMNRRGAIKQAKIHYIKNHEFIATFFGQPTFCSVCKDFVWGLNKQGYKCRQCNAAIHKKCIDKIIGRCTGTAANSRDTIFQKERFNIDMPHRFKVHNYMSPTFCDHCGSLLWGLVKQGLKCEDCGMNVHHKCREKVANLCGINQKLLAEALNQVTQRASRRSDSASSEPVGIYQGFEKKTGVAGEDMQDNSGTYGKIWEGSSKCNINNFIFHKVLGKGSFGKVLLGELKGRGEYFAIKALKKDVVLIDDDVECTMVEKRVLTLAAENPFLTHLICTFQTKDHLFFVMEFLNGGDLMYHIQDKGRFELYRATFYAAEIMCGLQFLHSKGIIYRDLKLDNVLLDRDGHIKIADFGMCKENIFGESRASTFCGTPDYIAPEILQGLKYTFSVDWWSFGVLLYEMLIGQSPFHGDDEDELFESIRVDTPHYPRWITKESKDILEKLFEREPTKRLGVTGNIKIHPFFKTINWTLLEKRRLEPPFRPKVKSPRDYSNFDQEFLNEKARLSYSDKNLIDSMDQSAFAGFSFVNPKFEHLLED
- experiment: PKC Delta coupled-enzyme kinase assay
- Type: biochemical
- experimental.context: 46 nM PKC delta, 150 μM ATP, 30° C.; read-out: Ki PKC delta

compound | Ki
Nc1ncc(-c2c[nH]c3ccccc23)cc1C(=O)c1cccc(N2CCNC(c3ccccc3)C2)n1 (stereo not drawn) | 50 to 500 nM
Nc1ncccc1C(=O)c1nc(NCC2CCNC2)ccc1C(F)(F)F (stereo not drawn) | 50 to 500 nM
Nc1ncc(Cc2ccccc2)cc1C(=O)c1cccc(N2CCCNCC2)n1 | 50 to 500 nM
Nc1ncccc1C(=O)c1nc(N2CCNCC2)ccc1Cl | 50 to 500 nM
CC1CN(c2cccc(C(=O)c3cccnc3N)n2)C(C)CN1 (stereo not drawn) | 50 to 500 nM
Nc1ncccc1C(=O)c1nccc(N2CCNCC2)n1 | > 2800 nM

Take each entry in turn and give its Ki.
1. Nc1ncc(Br)cc1C(=O)c1cccc(N2CCNCC2)n1
2. Nc1ncc(-c2ccccc2)cc1C(=O)c1cccc(N2CCNC(c3ccccc3)C2)n1 (stereo not drawn)
3. CCc1cnc(N)c(C(=O)c2cccc(N3CCCN(C)CC3)n2)c1

1: 50 to 500 nM; 2: 500 to 2800 nM; 3: 500 to 2800 nM
